# Test system: enterovirus D68
# protocol_details: Antiviral activity against Enterovirus D68 US/MO/14-18947 harboring 2C protein D183V/D323G drug resistant mutant by CPE assay followed by viral 2C gene sequencing
# Format: functional, organism-based
# condition_details: Enterovirus D
property_label: pEC50
Kindly note that pEC50 refers to -log10 of the concentration in mol/L and answer with the value alone.

[Q] Name the reported pEC50 value associated with the molecule "CC(C)n1ncc2c(C(=O)NCCN(C)C)cc(C3CC3)nc21"
[A] 5.72

---

# protocol_details: Cytotoxicity against human RD cells incubated for 3 days by neutral red uptake method
# Format: cell-based, Rhabdomyosarcoma cell
# condition_details: time 3 day
property_label: CC50 at 72 h

Example cases with answers are listed next.
CCn1ncc2c(C(=O)NCCN(C)C)cc(C)nc21 : > 300 µM
CN(C)CCNC(=O)c1cc(C2CC2)nc2c1cnn2C : > 300 µM
CCn1ncc2c(C(=O)NCCNC)cc(C)nc21 : > 300 µM

# ---- query compound ----
[Q] Name the reported CC50 at 72 h value associated with the compound "CC(C)c1cc(C(=O)NCCO)c2cnn(C(C)C)c2n1"
[A] > 100 µM
